Tested on: 58 cancer cell lines
Assay: Spectrum of anticancer activity, 58 cancer cell lines
Format: cell-based, human
Conditions: 10 μM
OBSERVATION TYPE: number of cell lines out of 58 inhibited by more than 50%
Output spec: single numeric token, no unit.

Query: Look up number of cell lines out of 58 inhibited by more than 50%: `CCCCCCCCCCCCCCCCCCOc1ccccc1CC(=O)OCC[N+]1(C)CCCCC1.[I-]`
Reply: 31

Query: Now consider `CCCCCCCCCCCCCCCCCCOc1ccccc1CC(=O)OCC[N+]1(C)CCCC1.[I-]` and answer again.
Reply: 43

Query: `CCCCCCCCCCCCCCCCCCOc1ccccc1CC(=O)OCC[N+](CC)(CC)CC.[I-]` , same question.
Reply: 49

Query: Next molecule up: `CCCCCCCCCCCCCCCCCCOc1ccccc1CC(=O)OCC[N+](C)(C)C.[I-]`
Reply: 50

====

Would you kindly list GI50 for each of these compounds?
Test system: nine melanoma cell lines
Experiment: GI50 evaluation, melanoma cell lines
Format: cell-based, human
Settings: Homo sapiens, read-out: GI50 range, melanoma

Query: Fill blank: measured GI50 of the compound `CCCCCCCCCCCCCCCCCCOc1ccccc1CC(=O)OCC[N+](CC)(CC)CC.[I-]` is ____.
Reply: 880 to 1900 nM

Query: Similarly, CCCCCCCCCCCCCCCCCCOCC(COP(=O)([O-])OCC[N+](C)(C)C)OC (centres unmarked) [edelfosine, reference compound] ?
Reply: 15400 to 98400 nM

Query: Can you handle `CCCCCCCCCCCCCCCCCCOc1ccccc1CC(=O)OCC[N+]1(C)CCCC1.[I-]` next?
Reply: 1630 to 2820 nM

Query: Next: `CCCCCCCCCCCCCCCCCCOc1ccccc1CC(=O)OCC[N+]1(C)CCCCC1.[I-]`
Reply: 1700 to 2790 nM

Query: Also need `CCCCCCCCCCCCCCCCCCOc1ccccc1CC(=O)OCC[N+](C)(C)C.[I-]` , thanks.
Reply: 1570 to 2340 nM

====

System: seven colon cancer cell lines
Experiment: GI50 evaluation, colon cancer cell lines
Format: cell-based, human
Details: Homo sapiens, read-out: calculated average GI50, colon cancer
So basically: is GI50 under 2000 nM? Then yes (1). Not under? Then no (0).

Query: Is GI50 strictly under 2000 nM for the entry `CCCCCCCCCCCCCCCCCCOc1ccccc1CC(=O)OCC[N+]1(C)CCCCC1.[I-]` ?
Reply: no (0)

Query: What would you report for `CCCCCCCCCCCCCCCCCCOc1ccccc1CC(=O)OCC[N+](CC)(CC)CC.[I-]` ?
Reply: yes (1)

Query: Same thing, different compound: `CCCCCCCCCCCCCCCCCCOc1ccccc1CC(=O)OCC[N+]1(C)CCCC1.[I-]`
Reply: no (0)

Query: // next record CCCCCCCCCCCCCCCCCCOCC(COP(=O)([O-])OCC[N+](C)(C)C)OC (centres unmarked) [edelfosine, reference compound]
Reply: no (0)

Query: Can you handle `CCCCCCCCCCCCCCCCCCOc1ccccc1CC(=O)OCC[N+](C)(C)C.[I-]` next?
Reply: yes (1)

====

Assay: Selectivity against normal cells, MRC-5
Type: cell-based, human
Settings: human, MRC-5 normal foetal lung fibroblast cells
OBSERVATION TYPE: GI50 (µM)
Dear colleague, please return just the value in µM, with no unit written.

Query: What value of GI50 has been reported for the following compound? `CCCCCCCCCCCCCCCCCCOc1ccccc1CC(=O)OCC[N+](C)(C)C.[I-]`
Reply: 16.7
